Reported IC50 on BDNF/NT-3 growth factors receptor (Homo sapiens) for assorted compounds, compiled from publications.
Report the figure in nM without appending any unit label.

Some solved cases for reference:
compound=CN1CCN(CCCOc2ccc3c(C4CCN(C(=S)Nc5ccc(N6CCOCC6)nc5)CC4)ncnc3c2)CC1 recorded_metric=IC50 result_value=16300
compound=Fc1cc(F)cc(Cc2ccc3[nH]nc(/C=C/c4ccc5ccccc5n4)c3c2)c1 recorded_metric=IC50 result_value=87.1
compound="CC(Nc1ccn2ncc(-c3cnn(C)c3)c2n1)c1cc(F)ccc1OC1CCOC1 (stereo not drawn)" recorded_metric=IC50 result_value=5.8
compound=CS(=O)(=O)NCCCOc1ccc2c(C3CCN(C(=O)Nc4ccc(N5CCCC5)nc4)CC3)ncnc2c1 recorded_metric=IC50 result_value=2000

Input: Reported IC50, compound CC(Nc1ccn2ncc(-c3cn[nH]c3)c2n1)c1cc(F)ccc1OC1CCOC1 (stereo not drawn) : ____
Output: 8.6

Input: Then O=S(=O)(c1cc(F)cc(F)c1)c1ccc2[nH]nc(/C=C/c3ccccn3)c2n1 ?
Output: 9.4

Input: Next: COc1cc2ncnc(C3CCN(C(=O)Nc4ccccc4)CC3)c2cc1OC
Output: 6500

Input: Now the compound CC(C)Oc1ccc(NC(=O)N2CCC(c3ncnc4cc(N(C)C)ccc34)CC2)cc1
Output: 100

====

Several publications report pIC50 on BDNF/NT-3 growth factors receptor (Homo sapiens); those values are gathered here.
pIC50 is defined as minus the log10 of a concentration measured in mol/L.

compound=COc1cc2ncnc(C3CCN(C(=O)Nc4ccc(Oc5ccccc5)cc4)CC3)c2cc1OC result_value=5.40

Input: Endpoint output: pIC50 of CO/N=C/c1c(N)ncnc1N1CCN(C(=O)Nc2ccc(N3CCCC3)cc2)CC1 . Value?
Output: 5.59

Input: Similarly, COc1cc2ncnc(C3CCN(CC(=O)Nc4ccc(OC(C)C)cc4)CC3)c2cc1OC ?
Output: 6.00

Input: CCO/N=C\c1c(N)ncnc1N1CCN(C(=O)Cc2ccc(C(C)C)cc2)CC1 , same question.
Output: 5.85

Input: And the next one, O=C(Nc1ccc(N2CCCC2)cc1)N1CCC(c2ncnc3cc(OCCN4CCOC4=O)ccc23)CC1 ?
Output: 5.56

Input: What do you get for CN1CCC(COc2ccc3c(C4CCN(C(=O)Nc5ccc(N6CCOCC6)nc5)CC4)ncnc3c2)CC1 ?
Output: 5.27

Input: Moving on to COc1cc2ncc(C#N)c(N3CCC(OC(=O)Nc4ccc(C(C)C)cc4)C3)c2cc1OC (stereo not shown)
Output: 5.07

====

Note to self: these compounds have IC50 reported for BDNF/NT-3 growth factors receptor (Homo sapiens, UniProt Q16620) in various publications.
Lab book: enter the figure in µM, no units written.

Use these answered entries as a reference point.
compound=CO/N=C/c1c(N)ncnc1N1CCN(C(=O)Nc2ccc(N3CCCCC3)cc2)CC1 result_value=4
compound=Nc1n[nH]c2cc(-c3ccc(C(=O)NC4CC4)c(N4CCN(c5ccccc5)CC4)c3)cc(OC3CCOCC3)c12 result_value=0.00804
compound="COc1cc2ncnc(N3CCC(OC(=O)Nc4ccc(OC5CCC5)nc4)C3)c2cc1OC (stereo not drawn)" result_value=21.7
compound="CCC(C)c1ccc(NC(=O)N2CCC(c3ncnc4cc(OC)c(OC)cc34)CC2)cc1 (stereo not drawn)" result_value=1.2
compound=CN(Cc1ccc2[nH]nc(/C=C/c3ccccn3)c2c1)c1cc(F)cc(F)c1 result_value=0.12

Input: Data request, read-out IC50, for CC(Nc1ccn2ncc(-c3cnn(C4CCCC4O)c3)c2n1)c1cc(F)ccc1O (stereo not drawn)
Output: 0.0051

Input: Lookup Fc1ccccc1Cc1ccc2[nH]nc(/C=C/c3ccccn3)c2c1
Output: 0.0561

Input: // repeat for CC(Nc1ccn2ncc(-c3cn[nH]c3)c2n1)c1cc(F)ccc1OCF (stereo not drawn) and report
Output: 0.013

====

Let's look at some pIC50 data for BDNF/NT-3 growth factors receptor (Homo sapiens) that I collected from the literature.
pIC50: −log10 of the molar value.

smiles_string=Fc1ccc(Cc2ccc3[nH]nc(C#Cc4ccccn4)c3c2)cc1 result_value="< 6.00"

Input: Recorded pIC50 of O=C(Nc1ccc(N2CCOCC2)cc1)N1CCC(c2ncnc3cc(N4CCC[C@@H]4CO)ccc23)CC1 , please.
Output: < 4.38

Input: Try this compound next: O=C(Nc1cc(F)cc(F)c1)c1ccc2[nH]nc(/C=C/c3ccccn3)c2c1
Output: < 6.00

Input: // query: Cc1cn(-c2cc(NC(=O)c3cccc(C#Cc4cnc5ccc(N6CCC(O)CC6)nn45)c3C)cc(C(F)(F)F)c2)cn1
Output: > 8.00

Input: Same question for CN1CCCN(c2ccc3c(C4CCN(C(=O)Nc5ccc(N6CCOCC6)cc5)CC4)ncnc3c2)CC1 please.
Output: < 4.38

Input: Ok, now Fc1cc(Cc2ccc3[nH]nc(/C=C/c4ccccn4)c3c2)cc(F)c1F
Output: < 6.00

Input: Same for Cc1c(C#Cc2cnc3ccc(N4CCC(N(C)C)CC4)nn23)cccc1C(=O)Nc1cc(CN2CCN(C)CC2)cc(C(F)(F)F)c1
Output: 7.00 to 8.00

Input: Next compound: COc1cc2ncnc(C3CCN(C(=O)Nc4ccc(C5CCN(C(=O)OC(C)(C)C)CC5)cc4)CC3)c2cc1OC
Output: < 4.38

Input: Consider next the compound O=C1CCCN1CCCOc1ccc2c(C3CCN(C(=O)Nc4ccc(N5CCOCC5)cc4)CC3)ncnc2c1 in the same way.
Output: < 4.70

Input: Now consider CCO/N=C/c1c(N)ncnc1N1CCC(OC(=O)Nc2ccc(OC(C)C)cc2)CC1 and answer again.
Output: < 4.38

====

Collected set of pIC50 measured with BDNF/NT-3 growth factors receptor (Homo sapiens) across studies.
pIC50: −log10 of the molar value.

Solved entries (count: 3):
smiles_string=Cc1c(C#Cc2cnc3ccc(N4CC[C@H](O)C4)nn23)cccc1C(=O)Nc1cc(Cl)cc(C(F)(F)F)c1 target="BDNF/NT-3 growth factors receptor (Homo sapiens)" recorded_metric=pIC50 result_value="7.00 to 8.00"
smiles_string=CN1CCC[C@H]1COc1ccc2c(C3CCN(C(=O)Nc4ccc(N5CCCC5)cc4)CC3)ncnc2c1 target="BDNF/NT-3 growth factors receptor (Homo sapiens)" recorded_metric=pIC50 result_value="< 4.38"
smiles_string=O=C(Nc1ccc(N2CCOCC2)cc1)N1CCC(c2ncnc3cc(N4CC[C@H](O)C4)ccc23)CC1 target="BDNF/NT-3 growth factors receptor (Homo sapiens)" recorded_metric=pIC50 result_value="< 4.70"

Input: Form field: reported pIC50 of CCN(CC)CCCOc1ccc2c(C3CCN(C(=O)Nc4ccc(N5CCOCC5)cc4)CC3)ncnc2c1
Output: < 4.38

Input: Also Cc1c(C#Cc2cnc3ccc(N4CCC(O)CC4)nn23)cccc1C(=O)Nc1cc(CN2CCN(C)CC2)cc(C(F)(F)F)c1 ?
Output: > 8.00

Input: Next: Cc1cn(-c2cc(NC(=O)c3cccc(C#Cc4cnc5ccc(N6CCOCC6)nn45)c3C)cc(C(F)(F)F)c2)cn1
Output: > 8.00

Input: Same question, Fc1cc(F)cc(Nc2ccc3[nH]nc(C#Cc4ccccn4)c3c2)c1 this time
Output: < 6.00
